Measured target: T1, recombinant human IL-6 (human, UniProt P05231 30-212)
T1 construct: Bought protein
T1 sequence (P05231 30-212 limits assumed): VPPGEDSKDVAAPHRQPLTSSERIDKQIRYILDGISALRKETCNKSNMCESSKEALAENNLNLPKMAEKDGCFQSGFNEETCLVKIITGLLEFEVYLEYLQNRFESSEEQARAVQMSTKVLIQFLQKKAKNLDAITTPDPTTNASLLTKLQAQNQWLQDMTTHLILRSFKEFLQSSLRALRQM
Assay: SPR Biacore, supernatant Ab on Protein A chip, IL-6 analyte, 25 C
Method: Antibodies were captured on a Protein A chip (GE) by injecting 1:20 dilution of cell supernatant at 10 μL/min for 60 seconds. […] The sensor chip was regenerated by a 60 seconds injection of 10 mM Glycine pH 1.7 at flow rate of 50 μL/min. […] For this setup, 1 μg/mL of purified antibody was injected over a Protein A chip at 10 μL/min for 25-28 seconds. Data analysis for supernatant and purified samples were performed using BIAevaluation software (GE). […]

Binder | koff / s⁻¹
anti-IL-6 antibody, light chain Q89S (heavy chain WT) (antibody, V domains shown, See note of m2; also called WT / Q89S) VH: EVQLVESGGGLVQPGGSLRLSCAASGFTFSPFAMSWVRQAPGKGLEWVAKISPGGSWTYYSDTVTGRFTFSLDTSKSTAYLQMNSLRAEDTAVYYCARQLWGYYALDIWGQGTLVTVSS VL: DIQLTQSPSSLSASVGDRVTITCSASISVSYMYWYQQKPGKAPKLLIYDMSNLASGVPSRFSGSGSGTDFTLTISSLQPEDFATYYCMSWSGYPYTFGQGTKVEIK | 0.000272
anti-IL-6 antibody, light chain L46V (heavy chain WT) (antibody, V domains shown, See note of m2; also called WT / L46V) VH: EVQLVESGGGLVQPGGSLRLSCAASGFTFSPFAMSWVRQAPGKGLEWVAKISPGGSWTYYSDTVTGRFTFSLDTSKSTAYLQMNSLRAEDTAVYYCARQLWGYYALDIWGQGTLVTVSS VL: DIQLTQSPSSLSASVGDRVTITCSASISVSYMYWYQQKPGKAPKLVIYDMSNLASGVPSRFSGSGSGTDFTLTISSLQPEDFATYYCMQWSGYPYTFGQGTKVEIK | 0.000203
